measurement target: human PDE5 (Homo sapiens)
Construct: from tissue; host or cells: human platelets from fresh donor blood (platelet lysate)
assay overview: Inhibition of PDE5 activity (platelet lysate, SPA assay)
Type: biochemical
condition details: 0.5 μM cGMP, read-out: PDE5 Inhibitory values measured as -logIC50 (converted)
property: IC50

Check out these entries, answers already filled in.
{"columns": ["compound", "measurement target", "result"],
 "data": [
  ["COc1ccc(C2=NN(C3CCN(C(=O)[C@@H](Cc4ccccc4)NC(=O)c4c[nH]c5c(-c6c(OCC7CC7)ccc7c6OCO7)ncnc45)CC3)C(=O)C3(CCCC3)C2)cc1OC [Example 123]", "human PDE5 (Homo sapiens)", "1 to 10 nM"],
  ["COc1ccc(C2=NN(C3CCN(C(=O)C[C@@H](Cc4ccccc4)NC(=O)c4c[nH]c5c(-c6c(OCC7CC7)ccc7c6OCO7)ncnc45)CC3)C(=O)[C@@H]3CCCC[C@H]23)cc1OC [Example 77]", "human PDE5 (Homo sapiens)", "1 to 10 nM"],
  ["COc1ccc(C2=NN(C3CCN(C(=O)[C@@H](CCSC)NC(=O)c4c[nH]c5c(-c6c(OCC7CC7)ccc7c6OCO7)ncnc45)CC3)C(=O)[C@@H]3CCCC[C@H]23)cc1OC [Example 98]", "human PDE5 (Homo sapiens)", "< 1 nM"],
  ["COc1ccc(C2=NN(C3CCN(C(=O)[C@H](CO)NC(=O)c4c[nH]c5c(-c6c(OCC7CC7)ccc7c6OCO7)ncnc45)CC3)C(=O)[C@@H]3CCCC[C@H]23)cc1OC [Example 60]", "human PDE5 (Homo sapiens)", "1 to 10 nM"]
]}

Kindly consider the entry below.
Bench note: what IC50 did COc1ccc(C2=NN(C3CCN(C(=O)[C@@H](Cc4ccc(C#N)cc4)NC(=O)c4c[nH]c5c(-c6c(OCC7CC7)ccc7c6OCO7)ncnc45)CC3)C(=O)[C@@H]3CCCC[C@H]23)cc1OC [Example 16] show?
1 to 10 nM
